settings: in ethanol, 283.15 K
MEASURED_ATTRIBUTE: solubility (mole fraction)
# print the numeric value only

Quick check: solubility (mole fraction) of O=Cc1ccc([N+](=O)[O-])cc1 ?
0.0199

* * *

conditions: in acetone, 273.15 K
MEASURED_ATTRIBUTE: solubility (mole fraction)
# print the numeric value only

Quick check: solubility (mole fraction) of O=Cc1ccc([N+](=O)[O-])cc1 ?
0.0389

* * *

details: in toluene, 313.15 K
MEASURED_ATTRIBUTE: solubility (mole fraction)
# print the numeric value only

Quick check: solubility (mole fraction) of O=Cc1ccc([N+](=O)[O-])cc1 ?
0.0969
